target: HIV-1 RT Y181C (Human immunodeficiency virus type 1 group M subtype B, UniProt P03366, Y780C); construct: an HIV RT clone pKRT2 containing only the RT p66 gene regulated by the lac operon/trc promoter; assay: Reverse transcriptase (RT) assay, Y181C mutant
pIC50: −log10 of the molar value.
reported-property: pIC50

# smiles-repr, experimental-value
rows = [
    ("CCN1c2ncc(CCOc3cc[n+]([O-])c4ccccc34)cc2C(=O)N(C)c2cccnc21", 7.29),
    ("CCN1c2ncc(CCOc3cc[n+]([O-])c4ccccc34)cc2C(=O)N(C)c2ccc(F)nc21", 7.57),
    ("CCN1c2ncc(CCOc3cc[n+]([O-])c4ccccc34)cc2C(=O)Nc2c(C)cc(F)nc21", 7.37),
    ("CCN1c2ncc(CCOc3cc[n+]([O-])c4ccccc34)cc2C(=O)Nc2c(C)cc(Cl)nc21", 7.55),
]
